tested on: mouse peritoneal macrophages; assay: Inhibition of production of cholesteryl ester from [14C] oleic acid in mouse peritoneal macrophages; format: cell-based; conditions: Mus musculus, Peritoneal macrophage, 14 h, read-out: Macrophage [IC50 μg/mL]
quantity-measured: IC50 (µg/mL)
Numbers only, in µg/mL.

compound	target	IC50 [µg/mL]
COC(=O)C1Cc2cc(Br)c(c(Br)c2)Oc2cc(cc(I)c2O)C[C@H](NC(=O)OCc2ccccc2)C(=O)N[C@@H]([C@H](C)OCc2ccccc2)C(=O)N1 (some centres unmarked)	mouse peritoneal macrophages	3

Q) Indicate the recorded IC50 value for this compound: COC(=O)C1Cc2cc(Br)c(c(Br)c2)Oc2cc(cc(I)c2O)C[C@H](NC(=O)OC(C)(C)C)C(=O)N[C@@H]([C@H](C)OCc2ccccc2)C(=O)N1 (some centres unmarked)
A) 3
